Can you tell me pIC50 for the items I'm about to list?
protocol_text: Inhibition of beta-amyloid peptide production in CHO N9 cell line
To interpret pIC50, take it as minus log10 of a concentration measured in moles per litre.

Output pIC50 of `CCC[C@H](C(N)=O)[C@@H](CC(C)C)C(=O)N[C@H]1CCCCN(Cc2cccc(Nc3ccc(OC)cc3)c2)C1=O`
6.80

Output pIC50 of `CCC[C@H](C(=O)NC1CCCC1)[C@@H](CC(C)C)C(=O)N[C@H]1CCCCN(Cc2cccc(Oc3ccccc3)c2)C1=O`
5.22

Output pIC50 of `CCC[C@H](C(N)=O)[C@@H](CC(C)C)C(=O)N[C@H]1CCCCN(Cc2cccc(Nc3cccc(C)c3)c2)C1=O`
7.77

Output pIC50 of `CCC[C@H](C(N)=O)[C@@H](CC(C)C)C(=O)N[C@H]1CCCCN(Cc2cccc(Nc3cccc(OC)c3)c2)C1=O`
7.27

Output pIC50 of `CCC[C@H](C(=O)NO)[C@@H](CC(C)C)C(=O)N[C@H]1CCCCN(Cc2ccccc2)C1=O`
5.17

Output pIC50 of `CCC[C@H](C(=O)NC/C=C/Cc1ccccc1)[C@@H](CC(C)C)C(=O)N[C@H]1CCCCN(Cc2cccc(Oc3ccccc3)c2)C1=O`
5.52

Output pIC50 of `CCC[C@H](C(N)=O)[C@@H](CC(C)C)C(=O)N[C@H]1CCCCN(Cc2cccc(Nc3ccc(C(F)(F)F)cc3)c2)C1=O`
7.52

Output pIC50 of `CCC[C@H](C(=O)NO)[C@@H](CC(C)C)C(=O)N[C@H]1CCCCN(Cc2cccc(Oc3ccccc3)c2)C1=O`
6.70

Output pIC50 of `CCCCNC(=O)[C@@H](CCC)[C@@H](CC(C)C)C(=O)N[C@H]1CCCCN(Cc2cccc(Oc3ccccc3)c2)C1=O`
5.30

Output pIC50 of `CCC[C@H](C(N)=O)[C@@H](CC(C)C)C(=O)N[C@H]1CCCCN(Cc2cccc(Nc3ccc(F)c(Cl)c3)c2)C1=O`
7.77

Output pIC50 of `CCC[C@H](C(N)=O)[C@@H](CC(C)C)C(=O)N[C@H]1CCCCN(Cc2cccc(Nc3ccc4c(c3)OCO4)c2)C1=O`
6.82

Output pIC50 of `CCC[C@H](C(N)=O)[C@@H](CC(C)C)C(=O)N[C@H]1CCCCN(Cc2cccc(Nc3ccccc3)c2)C1=O`
7.82

Output pIC50 of `CCC[C@H](C(N)=O)[C@@H](CC(C)C)C(=O)N[C@H]1CCCCN(Cc2cccc(Nc3ccccc3Cl)c2)C1=O`
7.54

Output pIC50 of `CCC[C@H](C(=O)NCc1ccco1)[C@@H](CC(C)C)C(=O)N[C@H]1CCCCN(Cc2cccc(Oc3ccccc3)c2)C1=O`
5.52

Each recorded value in this set is attributed to BindingDB's records for doi:10.1016/j.bmcl.2006.01.055.
